# pKi against UniProtKB P28190, merged from multiple literature sources
# Sequence (P28190 whole entry): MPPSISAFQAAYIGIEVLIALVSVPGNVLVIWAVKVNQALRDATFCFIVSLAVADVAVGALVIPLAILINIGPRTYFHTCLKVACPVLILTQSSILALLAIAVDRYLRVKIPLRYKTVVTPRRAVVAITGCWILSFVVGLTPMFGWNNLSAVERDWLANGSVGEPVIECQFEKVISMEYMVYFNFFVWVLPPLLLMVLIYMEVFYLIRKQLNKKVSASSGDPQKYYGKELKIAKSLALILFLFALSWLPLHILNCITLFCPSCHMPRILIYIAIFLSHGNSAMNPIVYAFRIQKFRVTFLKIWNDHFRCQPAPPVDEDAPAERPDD
The value called pKi is obtained by taking minus log10 of the concentration in mol/L.

Let me check: CC(C)OC(=O)c1cnc2c(cnn2CC(Cl)c2ccccc2)c1N1CCCC1 (stereo unspecified) , system UniProtKB P28190, measured pKi is 6.00

Let me check: Nc1nc2ncccc2n2c(=O)n(-c3ccccc3)nc12 , system UniProtKB P28190, measured pKi is 8.51

Let me check: CC(=O)Nc1ccc2c(O)cc(-c3ccccc3)nc2n1 , system UniProtKB P28190, measured pKi is 6.50

Let me check: CCCn1c(=O)n(COCC)c(=O)c2[nH]c(C3CCCC3)nc21 , system UniProtKB P28190, measured pKi is 9.54

Let me check: Cc1cc(O)c2ccc(N)nc2n1 , system UniProtKB P28190, measured pKi is 5.00

Let me check: O=c1c(-c2ccco2)nnc2n(Cc3ccccc3)c3ccccc3n12 , system UniProtKB P28190, measured pKi is 6.00

Let me check: O=c1n(-c2ccc(Cl)cc2)nc2c(NC3CCCCC3)nc3ccccc3n12 , system UniProtKB P28190, measured pKi is 7.10

Let me check: Clc1ccc(-n2cc3c(n2)c(NC2CCCCC2)nc2ccccc23)cc1 , system UniProtKB P28190, measured pKi is 6.32

Let me check: Oc1nc2ccc(Cl)cc2n2nc(-c3ccco3)nc12 , system UniProtKB P28190, measured pKi is 5.44

Let me check: CCNc1nc(-c2ccccc2)nc2c1nnn2Cc1ccccc1F , system UniProtKB P28190, measured pKi is 7.96

Let me check: O=c1n(-c2ccccc2)nc2c(OCc3ccccc3)nc3ccccc3n12 , system UniProtKB P28190, measured pKi is 7.26
